Listing of recorded GI50 by entry.
System: BT-549 breast
Assay: NCI tumour cell line growth inhibition, 48 h
Where a SMILES comes first, the peptide text is derived from it. [ ]: non-standard residue; d: D form. The star is where a group is joined. dTle = CC(C)(C)[C@@H](N)C(=O)O; 4Abz = Nc1ccc(C(=O)O)cc1; NHOH = ON*
MEASUREMENT_NAME: GI50

>  <COMPOUND>
CCC(=O)Nc1ccc(C)c(-c2ccc(C(=O)NCC3CC3)cc2)c1

>  <MEASUREMENT_NAME>
GI50

>  <EXPERIMENTAL_RESULT>
> 25 µM

$$$$
>  <COMPOUND>
C[C@@H](NC(=O)[C@H](NC(=O)[C@@H]1CCCN1C(=O)CNC(=O)c1ccc(N)cc1)C(C)(C)C)C(=O)NO (H-[4Abz]GP[dTle][dA]-{NHOH})

>  <MEASUREMENT_NAME>
GI50

>  <EXPERIMENTAL_RESULT>
> 100 µM

$$$$
>  <COMPOUND>
NS(=O)(=O)c1ccc(N(/C=C/C(=O)C(F)(F)F)Cc2ccc(Cl)cc2)cc1

>  <MEASUREMENT_NAME>
GI50

>  <EXPERIMENTAL_RESULT>
23.6 µM

$$$$
>  <COMPOUND>
COc1ccc2c(c1)C(=O)/C(=C/c1ccc([N+](=O)[O-])o1)O2

>  <MEASUREMENT_NAME>
GI50

>  <EXPERIMENTAL_RESULT>
1.53 µM

$$$$
>  <COMPOUND>
CCOC(=O)C#Cc1c(C(=O)OCC)nnn1Cc1ccc([N+](=O)[O-])cc1

>  <MEASUREMENT_NAME>
GI50

>  <EXPERIMENTAL_RESULT>
5.07 µM

$$$$
>  <COMPOUND>
Clc1ccccc1CNc1c2ccccc2nc2ccccc12

>  <MEASUREMENT_NAME>
GI50

>  <EXPERIMENTAL_RESULT>
4.17 µM

$$$$
>  <COMPOUND>
CN(CC(=O)Nc1nc2ccccc2[nH]1)S(=O)(=O)c1ccc(Cl)cc1

>  <MEASUREMENT_NAME>
GI50

>  <EXPERIMENTAL_RESULT>
> 100 µM

$$$$
>  <COMPOUND>
C/C(=C\c1cc(C(F)(F)F)n(-c2ccc(N)cc2)n1)[C@@H]1C[C@@H]2O[C@]2(C)CCC[C@H](C)[C@H](O)[C@@H](C)C(=O)C(C)(C)[C@@H](O)CC(=O)O1

>  <MEASUREMENT_NAME>
GI50

>  <EXPERIMENTAL_RESULT>
0.065 µM

$$$$
>  <COMPOUND>
C=C(CO)[C@@H]1CC[C@]2(COC3CCCCO3)CC[C@]3(C)[C@H](CC[C@@H]4[C@@]5(C)C=C(C=O)C(=O)C(C)(C)[C@@H]5CC[C@]43C)[C@@H]12 (some centres not stated)

>  <MEASUREMENT_NAME>
GI50

>  <EXPERIMENTAL_RESULT>
0.221 µM

$$$$
>  <COMPOUND>
O=C1c2ccccc2-c2c1c1c(O)cccc1n2Cc1ccccn1

>  <MEASUREMENT_NAME>
GI50

>  <EXPERIMENTAL_RESULT>
26.2 µM

$$$$
>  <COMPOUND>
CC(=[N-])N1CCC[C@@H](Nc2c3ccccc3nc3ccccc23)C1.[Cl][Pt].[NH-]CCC[NH-]

>  <MEASUREMENT_NAME>
GI50

>  <EXPERIMENTAL_RESULT>
2.9 µM

$$$$
>  <COMPOUND>
CC1=C(C(=O)Nc2cc(Cl)c3[nH]ncc3c2)C(c2ccc(C(F)(F)F)cc2)CC(=O)N1 (configuration not stated)

>  <MEASUREMENT_NAME>
GI50

>  <EXPERIMENTAL_RESULT>
5.07 µM

$$$$
>  <COMPOUND>
C=C1C(=O)O[C@H]2[C@H]1CC/C(COC(=O)C(C)c1ccc(CC(C)C)cc1)=C\CC[C@@]1(C)O[C@@H]21 (some centres not stated)

>  <MEASUREMENT_NAME>
GI50

>  <EXPERIMENTAL_RESULT>
0.533 µM

$$$$
>  <COMPOUND>
O=C(Nc1cccc(-c2ccc(Cl)c(C(F)(F)F)c2)c1)C1CCN(Cc2cccc3cccnc23)CC1

>  <MEASUREMENT_NAME>
GI50

>  <EXPERIMENTAL_RESULT>
1.65 µM

$$$$
>  <COMPOUND>
Cc1cn2c(/C=N/N=C(N)N)c(-c3ccccn3)nc2s1

>  <MEASUREMENT_NAME>
GI50

>  <EXPERIMENTAL_RESULT>
7.69 µM

$$$$
>  <COMPOUND>
CCCN(CCC)c1ccc(/C=N/NC(=O)c2cccnc2)c(OC)c1

>  <MEASUREMENT_NAME>
GI50

>  <EXPERIMENTAL_RESULT>
28.4 µM

$$$$
>  <COMPOUND>
CN1CCN(c2ccc(NC(=O)c3cncnc3Nc3ccc(OCc4ccccn4)c(Cl)c3)cc2)CC1

>  <MEASUREMENT_NAME>
GI50

>  <EXPERIMENTAL_RESULT>
5.18 µM

$$$$
